- target_under_test: VIM-1 (Pseudomonas aeruginosa, UniProt A0A0F7KYQ8)
- assay_comment: Enzyme activity: determination of IC50, fluorescence assay with CCF2-FA substrate
- Format: biochemical
- settings: enzyme 30 pM, CCF2-FA 1.25 μM, 2 hours at 25° C.; read-out: VIM1 IC50
metric_name: pIC50
Give bare numbers, as −log10 of the molar value.

The following molecules have reported results that may help.
1. CCC[C@H](C(=O)O)[C@H](Cc1ccc(-c2cnc(N(C)C)nc2)nc1)c1nnn[nH]1 ... 8.42
2. CC(C)C[C@H](C(=O)O)[C@H](Cc1cnc(NCCO)s1)c1nnn[nH]1 ... 8.46

For every listed record, write down its pIC50.
1. CC(C)C[C@H](C(=O)O)[C@H](Cc1ccc2cc(NCCO)cnc2c1)c1nnn[nH]1
2. NCc1ccc(-c2ccc(C[C@H](c3nnn[nH]3)[C@@H](C(=O)O)C3CCCC3)cc2)cc1
3. CC(C)[C@H](C(=O)O)[C@H](Cc1ccccc1)c1nnn[nH]1
4. CCC[C@H](C(=O)O)[C@H](Cc1ccc(-c2cnn(C)c2)cc1)c1nnn[nH]1
5. NC(=O)CCCC[C@H](C(=O)O)[C@H](Cc1ccccc1)c1nnn[nH]1
6. CCC[C@H](C(=O)O)[C@H](Cc1ccc(N2CCN(c3ccncc3)CC2)cc1)c1nn[nH]n1
7. CCC[C@H](C(=O)O)[C@H](Cc1ccc(NCC(=O)N(C)C)cc1)c1nn[nH]n1
8. CC(C)[C@H](C(=O)O)[C@H](Cc1ccc(C2=CCNC2)cn1)c1nnn[nH]1

1: 8.80; 2: 8.37; 3: 7.66; 4: 8.40; 5: 6.68; 6: 7.29; 7: 7.68; 8: 7.14

Okay, here is my list. What is pIC50 for each of these?
1. CC(C)[C@H](C(=O)O)[C@H](Cc1ccc(C2CCNC2)nc1)c1nnn[nH]1 (stereo partly shown)
2. CCC[C@H](C(=O)O)[C@H](Cc1ccc(-c2cccc(CN3CCCCC3)c2)cc1)c1nn[nH]n1
3. CCC[C@H](C(=O)O)[C@H](Cc1ccc(NCc2ccc(O)cc2)nc1)c1nnn[nH]1
4. CC(C)C[C@H](C(=O)O)[C@H](Cc1ccc(-c2ccc3c(c2)CNC3)cn1)c1nnn[nH]1
5. CCC[C@H](C(=O)O)[C@H](Cc1cccc(Br)c1)c1nn[nH]n1
6. O=C(O)[C@@H](C1CCOC1)[C@H](Cc1ccc(C2=CCNC2)cc1)c1nnn[nH]1 (stereo partly shown)

1. 7.70
2. 8.14
3. 7.51
4. 6.46
5. 9.12
6. 7.60

###

- System: Klebsiella pneumoniae expressing VIM-1 (IHMA599644)
- assay_comment: Antibiotic potentiation activity: synergistic concentration (MITC95) with imipenem, growth by OD600
- Type: cell-based
- settings: 95% inhibition of bacterial growth, strain IHMA599644
Please provide measured VIM1 KP599644 MITC95 for the entries that follow.
One number for each entry, in µM.

Solved entries:
1) CCC[C@H](C(=O)O)[C@H](Cc1ccc(S(=O)(=O)C2CC2)nc1)c1nnn[nH]1 ... 100
2) CC(C)[C@H](C(=O)O)[C@H](Cc1ccc(C2=CCNC2)c(F)c1)c1nnn[nH]1 ... 6.2
3) CCC[C@H](C(=O)O)[C@H](Cc1ccc(-c2ccc(N3CCOCC3)nc2)cc1)c1nn[nH]n1 ... 200
4) CC(C)C[C@H](C(=O)O)[C@H](Cc1ccc(C2CCNCC2)cn1)c1nnn[nH]1 ... 18.8
5) CCC[C@H](C(=O)O)[C@H](Cc1ccc(-c2cnc(N3CCCCC3)s2)cc1)c1nn[nH]n1 ... 100

The following compounds each have a reported value; give each one's VIM1 KP599644 MITC95.
1. CC(C)C[C@H](C(=O)O)[C@H](Cc1ccc2cc(NCCO)cnc2c1)c1nnn[nH]1
2. CCC[C@H](C(=O)O)[C@H](Cc1ccc(NCCn2ccnn2)cc1)c1nn[nH]n1
3. CCC[C@H](C(=O)O)[C@H](Cc1ccc(-c2cccc(OC3CCNCC3)n2)cc1)c1nn[nH]n1

1. 75
2. 100
3. 50
